This listing pairs binders with measured IC50 (nM) Ca2+ assay (method 2).
experimental system: human CXCR4 (human, UniProt P61073 1-352)
Sequence (P61073 whole entry): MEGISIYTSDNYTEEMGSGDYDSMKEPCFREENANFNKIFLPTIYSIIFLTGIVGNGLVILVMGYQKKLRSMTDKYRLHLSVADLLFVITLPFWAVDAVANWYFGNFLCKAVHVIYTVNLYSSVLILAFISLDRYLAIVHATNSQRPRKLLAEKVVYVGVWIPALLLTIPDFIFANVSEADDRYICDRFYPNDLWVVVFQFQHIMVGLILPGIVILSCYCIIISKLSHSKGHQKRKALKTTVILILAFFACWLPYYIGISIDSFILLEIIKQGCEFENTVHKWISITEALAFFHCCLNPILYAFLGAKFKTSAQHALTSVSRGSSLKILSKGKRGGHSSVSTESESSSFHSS
assay remarks: cell-based or functional assay
Bridges are numbered along the chain shown (N, C = ends). [ ]: non-standard residue; d: D form. 2Nal = N[C@@H](Cc1ccc2ccccc2c1)C(=O)O; Cit = NC(=O)NCCC[C@H](N)C(=O)O
Note to self: number, then unit, no commentary.

Use the examples below as a reference point.
{"binder": "cyclo(YR[Cit]CRG[dP]RR[2Nal]CYKK[dP]P) (disulfide 4-11; SMILES N=C(N)NCCC[C@@H]1NC(=O)[C@@H]2CSSC[C@H](NC(=O)[C@H](Cc3ccc4ccccc4c3)NC(=O)[C@H](CCCNC(=N)N)NC(=O)[C@H](CCCNC(=N)N)NC(=O)[C@H]3CCCN3C(=O)CNC1=O)C(=O)N[C@@H](Cc1ccc(O)cc1)C(=O)N[C@@H](CCCCN)C(=O)N[C@@H](CCCCN)C(=O)N1CCC[C@@H]1C(=O)N1CCC[C@H]1C(=O)N[C@@H](Cc1ccc(O)cc1)C(=O)N[C@@H](CCCNC(=N)N)C(=O)N[C@@H](CCCNC(N)=O)C(=O)N2) [Example 79]", "IC50 (nM) Ca2+ assay (method 2)": "2.4 nM"}
{"binder": "RRWCYQKGYXPYGYRXCRGP (D-Pro at P10; Cit at P16; disulfide Cys P4-Cys P17; backbone-cyclic via template Gly-LPro) [Example 158]", "IC50 (nM) Ca2+ assay (method 2)": "250 nM"}

# input for lookup
Dear colleague, I am looking for the recorded IC50 (nM) Ca2+ assay (method 2) of the following binder: cyclo(YR[Cit]CRG[dP][Cit]RWCY[Cit]K[dP]P) (disulfide 4-11; SMILES N=C(N)NCCC[C@@H]1NC(=O)[C@@H]2CSSC[C@H](NC(=O)[C@H](Cc3c[nH]c4ccccc34)NC(=O)[C@H](CCCNC(=N)N)NC(=O)[C@H](CCCNC(N)=O)NC(=O)[C@H]3CCCN3C(=O)CNC1=O)C(=O)N[C@@H](Cc1ccc(O)cc1)C(=O)N[C@@H](CCCNC(N)=O)C(=O)N[C@@H](CCCCN)C(=O)N1CCC[C@@H]1C(=O)N1CCC[C@H]1C(=O)N[C@@H](Cc1ccc(O)cc1)C(=O)N[C@@H](CCCNC(=N)N)C(=O)N[C@@H](CCCNC(N)=O)C(=O)N2) [Example 136]
4.1 nM
